Value source: patent US11780830B2

target: recombinant human DAO (diamine oxidase) (Homo sapiens, UniProt P19801); construct: purchased R&D systems; assay: Activity on recombinant human DAO, method similar to the VAP-1 assay; format: biochemical; conditions: substrate 1 mM putrescine; read-out: Inhibitory Activity (IC50, nM) DAO
Sequence (P19801 20-751): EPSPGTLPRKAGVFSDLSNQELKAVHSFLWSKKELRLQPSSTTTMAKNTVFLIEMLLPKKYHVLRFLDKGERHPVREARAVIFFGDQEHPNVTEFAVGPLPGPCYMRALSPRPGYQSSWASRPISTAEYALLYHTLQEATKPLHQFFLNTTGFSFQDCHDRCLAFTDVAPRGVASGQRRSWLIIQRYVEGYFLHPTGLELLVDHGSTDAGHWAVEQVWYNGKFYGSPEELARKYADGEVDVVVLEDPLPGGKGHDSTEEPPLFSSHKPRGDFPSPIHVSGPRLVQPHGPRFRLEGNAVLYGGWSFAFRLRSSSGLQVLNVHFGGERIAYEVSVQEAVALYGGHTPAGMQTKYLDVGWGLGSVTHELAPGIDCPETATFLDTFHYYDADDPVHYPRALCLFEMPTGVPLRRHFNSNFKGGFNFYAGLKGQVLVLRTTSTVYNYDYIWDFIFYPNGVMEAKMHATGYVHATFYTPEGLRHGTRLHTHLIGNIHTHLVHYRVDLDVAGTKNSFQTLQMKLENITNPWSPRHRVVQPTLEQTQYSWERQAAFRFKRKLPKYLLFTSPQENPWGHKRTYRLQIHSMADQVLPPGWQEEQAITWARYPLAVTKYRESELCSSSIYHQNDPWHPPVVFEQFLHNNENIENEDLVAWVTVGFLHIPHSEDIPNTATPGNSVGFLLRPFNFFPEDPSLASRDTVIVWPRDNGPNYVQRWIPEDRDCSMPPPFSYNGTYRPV
Counter-ions that a name gives are not always drawn.
Quick reference for IC50 among some molecules
Answer with the figure and its unit, nothing else.

MOLECULE: NC/C(=C\F)Cn1ncn(Cc2ccc(-c3ccc(-c4nnc[nH]4)cc3)s2)c1=O [Example 31]
IC50: 120 nM

Q. Quick one: IC50 for Cn1cc(C#Cc2ccc(Cn3cnn(C/C(=C/F)CN)c3=O)s2)cn1 [Example 131, hydrochloride] ?
A. 1300 nM

Q. // query IC50 value for entry NC/C(=C\F)Cn1ncn(Cc2ccc(-c3cc4c(cc3F)OCC(=O)N4)s2)c1=O [Example 93, hydrochloride]
A. 230 nM

Q. Give the measured IC50 of COc1ccc(-c2ccc(Cn3cnn(C/C(=C/F)CN)c3=O)s2)cn1 [Example 45, hydrochloride] .
A. 330 nM

Q. Given NC/C(=C\F)Cn1ncn(Cc2ccc(-c3ccc4c(c3)CCC(=O)N4)s2)c1=O [Example 75, hydrochloride] , state its recorded IC50.
A. 950 nM

----------
target: recombinant human VAP-1 (Homo sapiens); construct: purchased R&D systems; experiment: Activity on recombinant human VAP-1, HRP-coupled Amplex Red hydrogen peroxide assay; format: biochemical; conditions: substrate 1 mM benzylamine; compound incubated with enzyme at 37° C. for 30 minutes; pH 7.4; read-out: Inhibitory Activity (IC50, nM) human VAP-1
Sequence (Q16853 whole entry): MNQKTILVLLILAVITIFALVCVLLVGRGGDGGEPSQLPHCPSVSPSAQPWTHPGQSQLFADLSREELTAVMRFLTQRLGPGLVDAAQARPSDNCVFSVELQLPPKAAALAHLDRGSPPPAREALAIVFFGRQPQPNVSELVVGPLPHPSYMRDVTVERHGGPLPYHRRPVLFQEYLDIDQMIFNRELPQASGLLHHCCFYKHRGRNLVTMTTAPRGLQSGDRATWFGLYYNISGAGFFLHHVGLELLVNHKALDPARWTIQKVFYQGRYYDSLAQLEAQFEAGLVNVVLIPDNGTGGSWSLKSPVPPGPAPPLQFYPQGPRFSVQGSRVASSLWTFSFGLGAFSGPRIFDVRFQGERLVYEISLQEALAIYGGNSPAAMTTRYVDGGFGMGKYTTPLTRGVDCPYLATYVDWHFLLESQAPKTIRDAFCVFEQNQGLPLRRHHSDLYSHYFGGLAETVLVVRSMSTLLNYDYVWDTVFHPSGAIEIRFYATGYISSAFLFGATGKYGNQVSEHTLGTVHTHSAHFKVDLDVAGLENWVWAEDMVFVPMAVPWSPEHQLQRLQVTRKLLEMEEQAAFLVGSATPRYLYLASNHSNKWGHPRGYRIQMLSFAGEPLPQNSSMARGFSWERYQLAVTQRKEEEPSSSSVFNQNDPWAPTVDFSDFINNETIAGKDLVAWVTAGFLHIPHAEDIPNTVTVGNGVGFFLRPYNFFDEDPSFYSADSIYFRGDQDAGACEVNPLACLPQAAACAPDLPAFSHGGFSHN
Where a name gives a salt, the structure may show the parent alone.
PARAMETER_MEASURED: IC50 (nM)
Write the answer as a number in nM, unit excluded.

MOLECULE: NC/C(=C\F)Cn1ncn(Cc2ccc(-c3cnc4c(c3)CCC(=O)N4)s2)c1=O
DATA_VALUE: 0.4

Q. # get_value(readout='IC50', item= NC/C(=C\F)Cn1ncn(Cc2ccc(-c3ccc4c(c3)COC(=O)N4)s2)c1=O [Example 101, hydrochloride] )
A. 0.2

Q. Please give the measured IC50 for this molecule: Cc1c(-c2ccc(Cn3cnn(C/C(=C/F)CN)c3=O)s2)ccc2c1COC(=O)N2
A. 0.2

----------
biological target: recombinant human VAP-1 (Homo sapiens); construct: purchased R&D systems; assay: Activity on recombinant human VAP-1, HRP-coupled Amplex Red hydrogen peroxide assay; assay type: biochemical; conditions: substrate 1 mM benzylamine; compound incubated with enzyme at 37° C. for 30 minutes; pH 7.4; read-out: Inhibitory Activity (IC50, nM) human VAP-1
Counter-ions that a name gives are not always drawn.
# IC50 binned as lower: < 0.7 nM; middle: ≥ 0.7 nM and < 2 nM; upper: ≥ 2 nM

COMPOUND: NC/C(=C\F)Cn1ncn(Cc2ccc(-c3ccncc3)s2)c1=O [Example 160]
ASSIGNED_CATEGORY: upper
--
COMPOUND: NC/C(=C\F)Cn1ncn(Cc2ccc(-c3cccc(-c4cc[nH]n4)c3)s2)c1=O [Example 184]
ASSIGNED_CATEGORY: upper
--
COMPOUND: Cn1cnc2cc(/C=C/c3ccc(Cn4cnn(C/C(=C/F)CN)c4=O)s3)cnc21 [Example 123, hydrochloride]
ASSIGNED_CATEGORY: lower
--
COMPOUND: CC(C)n1nccc1-c1ccc(Cn2cnn(C/C(=C/F)CN)c2=O)s1 [Example 161]
ASSIGNED_CATEGORY: upper
--
COMPOUND: CN(C)c1ncc(-c2ccc(Cn3cnn(C/C(=C/F)CN)c3=O)s2)cn1 [Example 55, hydrochloride]
ASSIGNED_CATEGORY: lower
--
COMPOUND: CN1C(=O)COc2ccc(-c3ccc(Cn4cnn(C/C(=C/F)CN)c4=O)s3)cc21 [Example 96, hydrochloride]
ASSIGNED_CATEGORY: middle
--
COMPOUND: CN(C)c1ncc(-c2ccc(Cn3cnn(C/C(=C/F)CN)c3=O)s2)cc1F [Example 173]
ASSIGNED_CATEGORY: upper
--
COMPOUND: Cc1cc(-c2ccc(Cn3cnn(C/C(=C/F)CN)c3=O)s2)cc2c1OCC(=O)N2 [Example 91, hydrochloride]
ASSIGNED_CATEGORY: middle

Q. Returns: class label. Input: NC/C(=C\F)Cn1ncn(Cc2ccc(-c3cccc(S(=O)(=O)N4CCCC4)c3)s2)c1=O [Example 28, hydrochloride]
A. lower

Q. Classify this compound: CC(C)Oc1ccc(-c2ccc(Cn3cnn(C/C(=C/F)CN)c3=O)s2)cn1 [Example 185]
A. upper

Q. Any idea which band NC/C(=C\F)Cn1ncn(Cc2ccc(-c3ccc4c(c3)CC(=O)N4)s2)c1=O [Example 69, hydrochloride] is in?
A. lower

Q. Band of Cc1nn(C)cc1-c1ccc(Cn2cnn(C/C(=C/F)CN)c2=O)s1 [Example 157] ?
A. upper

Q. Could you place NC/C(=C\F)Cn1ncn(Cc2ccc(-c3ccc4c(c3F)NCCO4)s2)c1=O [Example 106] in its proper category? Many thanks.
A. middle

Q. Class (by measured IC50) for NC/C(=C\F)Cn1ncn(Cc2ccc(-c3ccc(C4CCOCC4)cc3)s2)c1=O [Example 25, hydrochloride]
A. upper

Q. // return the class label for Cc1cc(-c2ccc(Cn3cnn(C/C(=C/F)CN)c3=O)s2)cc2c(C(F)(F)F)cc(=O)[nH]c12 [Example 83]
A. lower
